System: Saccharomyces cerevisiae
assay.procedure: Inhibition of SV40 T antigen-stimulated Hsp70 ATPase in yeast assessed as ATP hydrolysis relative to control
Please assign NO whenever Fold change is at or above -1, and YES whenever it is below.

Some solved entries appear below for comparison.
[
  {
    "compound": "CCCCCCN(C(=O)CCCCCN1C(=O)NC(c2ccc3ccccc3c2)C(C(=O)OCc2ccccc2)=C1C)C(C(=O)NCCCC)c1ccc(OCC(=O)OC)c(C(=O)OC)c1 (centres undefined)",
    "system": "Saccharomyces cerevisiae",
    "qualitative.label": "YES"
  },
  {
    "compound": "CCCCNC(=O)C(c1ccc(OCC(=O)OC)c(C(=O)OC)c1)N(CCOC)C(=O)CCCCCN1C(=O)NC(c2ccc(-c3ccccc3)cc2)C(C(=O)OCc2ccccc2)=C1C (centres undefined)",
    "system": "Saccharomyces cerevisiae",
    "qualitative.label": "YES"
  },
  {
    "compound": "CCCCCCN(C(=O)CCCCCN1C(=O)NC(c2ccc(-c3ccccc3)cc2)C(C(=O)OCc2ccccc2)=C1C)C(C(=O)NCCCC)c1ccccn1 (centres undefined)",
    "system": "Saccharomyces cerevisiae",
    "qualitative.label": "NO"
  }
]

Request: Please indicate whether the reported Fold change of CCCCNC(=O)C(c1ccc(OCC(=O)OC)c(C(=O)OC)c1)N(CCc1c[nH]c2ccccc12)C(=O)CCCCCN1C(=O)NC(c2ccc(-c3ccccc3)cc2)C(C(=O)OCc2ccccc2)=C1C (centres undefined) is strictly below -1.
Response: YES

Request: Please indicate whether the reported Fold change of COC(=O)CCCCCN1C(=O)NC(c2ccc(-c3ccccc3)cc2)C(C(=O)OCc2ccccc2)=C1C (centres undefined) is strictly below -1.
Response: YES

Request: Please indicate whether the reported Fold change of CCCCCCN(C(=O)CCCCCN1C(=O)NC(c2ccc(-c3ccccc3)cc2)C(C(=O)OCc2ccccc2)=C1C)C(C(=O)NCCCC)c1ccc(OCC(=O)OC)c(C(=O)OC)c1 (centres undefined) is strictly below -1.
Response: YES

Request: Please indicate whether the reported Fold change of CCCCCCN(C(=O)CCCCCN1C(=O)NC(c2ccc(-c3ccccc3)cc2)C(C(=O)OCc2ccccc2)=C1C)C(C(=O)NCCCC)C1CCCCC1 (centres undefined) is strictly below -1.
Response: NO

Request: Please indicate whether the reported Fold change of CC1=C(C(=O)OCc2ccccc2)C(c2ccc([N+](=O)[O-])cc2)NC(=O)N1CCCCCC(=O)O (centres undefined) is strictly below -1.
Response: NO

Request: Please indicate whether the reported Fold change of CCCCCCN(C(=O)CCCCCN1C(=O)NC(c2ccc(C(C)(C)C)cc2)C(C(=O)OCc2ccccc2)=C1C)C(C(=O)NCCCC)c1ccc(OCC(=O)OC)c(C(=O)OC)c1 (centres undefined) is strictly below -1.
Response: YES

* * *

Test system: Saccharomyces cerevisiae
assay.procedure: Inhibition of yeast Hsp70 ATPase assessed as ATP hydrolysis relative to control
The following molecules are shown together with reported Fold change values.

Here's what some known entries look like.
[
  {
    "molecule": "CC1=C(C(=O)OCc2ccccc2)C(c2ccccc2-c2ccccc2)NC(=O)N1CCCCCC(=O)O (centres undefined)",
    "measurement.type": "Fold change",
    "result": 1
  },
  {
    "molecule": "CCCCCCN(C(=O)CCCCCN1C(=O)NC(c2ccc(-c3ccccc3)cc2)C(C(=O)OCc2ccccc2)=C1C)C(C(=O)NCCCC)c1ccc(OCC(=O)O)c(C(=O)O)c1 (centres undefined)",
    "measurement.type": "Fold change",
    "result": 1.1
  },
  {
    "molecule": "CC1=C(C(=O)OCc2ccccc2)C(c2ccc(C3CCCCC3)cc2)NC(=O)N1CCCCCC(=O)O (centres undefined)",
    "measurement.type": "Fold change",
    "result": 1.1
  },
  {
    "molecule": "CCCCCCN(C(=O)CCCCCN1C(=O)NC(c2ccc3ccccc3c2)C(C(=O)OCc2ccccc2)=C1C)C(C(=O)NCCCC)c1ccc(OCC(=O)OC)c(C(=O)OC)c1 (centres undefined)",
    "measurement.type": "Fold change",
    "result": 1
  },
  {
    "molecule": "CCCCCCN(C(=O)CCCCCN1C(=O)NC(c2ccccc2)C(C(=O)OCc2ccccc2)=C1C)C(C(=O)NCCCC)c1ccc(OCC(=O)OC)c(C(=O)OC)c1 (centres undefined)",
    "measurement.type": "Fold change",
    "result": 1.1
  },
  {
    "molecule": "CC1=C(C(=O)OCc2ccccc2)C(c2ccc([N+](=O)[O-])cc2)NC(=O)N1CCCCCC(=O)O (centres undefined)",
    "measurement.type": "Fold change",
    "result": 1.2
  },
  {
    "molecule": "CCCCCCN(C(=O)CCCCCN1C(=O)NC(c2ccc(-c3ccccc3)cc2)C(C(=O)OCc2ccccc2)=C1C)C(C(=O)NCCCC)c1ccc(OCC(=O)OC)cc1 (centres undefined)",
    "measurement.type": "Fold change",
    "result": 1.1
  },
  {
    "molecule": "COC(=O)CCCCCN1C(=O)NC(c2ccc(-c3ccccc3)cc2)C(C(=O)OCc2ccccc2)=C1C (centres undefined)",
    "measurement.type": "Fold change",
    "result": 2.6
  }
]

Now examine the next entry.
Request: Supply recorded Fold change for CCCCNC(=O)C(c1ccc(OCC(=O)OC)c(C(=O)OC)c1)N(CCc1c[nH]c2ccccc12)C(=O)CCCCCN1C(=O)NC(c2ccc(-c3ccccc3)cc2)C(C(=O)OCc2ccccc2)=C1C (centres undefined) here.
Response: 10.3
